Test system: A549
Measurement notes: NCI tumour cell line growth inhibition, 48 h
Calls of active or inactive are those of the source. Cut-off read from the data, not from the text of the source: active = GI50 up to about 1.1 µM and inactive = higher.
Answer each item with its documented GI50.

-- ask Annotate the molecule COc1ccc(-c2coc3cc(O)cc(O)c3c2=O)cc1 [BIOCHANIN] with its measured GI50.
-- reply > 10 µM (inactive)

-- ask Return value of GI50 for input C=CCC1(C)CCCN(Cc2ccccc2)C1=O (centres undefined) , no commentary.
-- reply > 10 µM (inactive)

-- ask Give GI50 for "O=C1/C(=C\c2ccc(F)cc2)CCOc2c1ccc1ccccc21"
-- reply 23.4 µM (inactive)

-- ask Supply recorded GI50 for "O=C(O)c1ccc(S(=O)(=O)c2ccccc2[N+](=O)[O-])cc1" here.
-- reply > 10 µM (inactive)

* * *

Can you tell me GI50 for the items I'm about to list?
Test system: MOLT-4
Measurement notes: NCI tumour cell line growth inhibition, 48 h
Active and inactive are the calls of the source. No stated cut-off is given here; in the data, active = GI50 up to about 1.1 µM and inactive = higher.

-- ask Find GI50 for CCCCCCCCCC[C@@H](O)[C@H]1CC[C@@H]([C@H]2CC[C@H]([C@H](O)CCCCCCCCCC[C@@H]3CC(CC(C)=O)C(=O)O3)O2)O1 (stereo not given in full) on MOLT-4 and write it down.
-- reply 4.13 µM (inactive)

-- ask Retrieve GI50 on MOLT-4; query "COc1ccc2c(c1)CCCc1c-2nc2ccccc2c1N"
-- reply 8.59 µM (inactive)

-- ask Provide measured GI50 on MOLT-4 for CCc1ccccc1NC(=O)C(=O)C(C(=O)c1ccc(OC)cc1)c1ccc(OC)cc1 (stereo not given) please.
-- reply 94.2 µM (inactive)

-- ask Provide GI50, system MOLT-4, entry "O=C(NNc1ccccc1)c1ccc(Cl)c(Cl)c1"
-- reply 21.5 µM (inactive)

-- ask Tell me GI50 of "Cc1nc(Nc2ccc(Cl)cc2)sc1C(=O)NNC(=S)NN" when tested on MOLT-4.
-- reply 21.5 µM (inactive)

-- ask Please indicate recorded GI50 of CN1C(=O)NC2(O)c3ccccc3C(=O)C12O (stereo not given) measured with MOLT-4.
-- reply > 100 µM (inactive)

-- ask State GI50 on MOLT-4. Entry: "CCN(CC)CCCCC1CCN(CC(=O)N2c3ccccc3NC(=O)c3ccccc32)CC1"
-- reply > 100 µM (inactive)

-- ask Report GI50 from MOLT-4 testing of "COc1ccc(C(=O)c2[nH]c(Nc3ccc(Cl)cc3)c(C(=S)Nc3ccccc3)c2N)cc1"
-- reply > 100 µM (inactive)

-- ask Under MOLT-4, report GI50 for "COc1ccc(NC2=NCCO2)c2ccccc12"
-- reply > 10 µM (inactive)

-- ask Send back MOLT-4 GI50 of "Clc1cc2n[se]nc2cc1Cl" only.
-- reply > 100 µM (inactive)

* * *

Tested on: DU-145
Measurement notes: NCI tumour cell line growth inhibition, 48 h
Active and inactive are the calls of the source. Rule as the data show it: active = GI50 up to about 1.1 µM and inactive = higher.
Provide the recorded GI50 for the entries that follow.

-- ask Give the reported GI50 for this molecule. "CCOC(=O)c1c(O)cn2c1[nH]c1cccc3cccc2c31"
-- reply 71.6 µM (inactive)

-- ask Please supply the value of reported GI50 for the item "CCN(CC)CCCNC(=O)c1cc2cc(NC(=O)c3cc4cc([N+](=O)[O-])ccc4[nH]3)ccc2[nH]1"
-- reply > 100 µM (inactive)

-- ask Quick one: give measured GI50 for "Cn1c(=O)c2c(nc(N/N=C3/SCC(=O)N3Cc3ccccc3)n2C)n(C)c1=O"
-- reply > 100 µM (inactive)

Origin of the recorded values: ChEMBL document CHEMBL1201862
